# credit: PubChem BioAssay AID1918935

system: 324938-238-R-J1-PDC complex spheroid viability; assay: Anticancer human tumor 324938-238-R-J1-PDC patient-derived bladder carcinoma cell line growth inhibition; conditions: second compound 1 µM; first compound 0.01 µM; stronger effect = lower value
measured.endpoint: viability, T/C (%)
Write it as a number; the unit % goes unstated.

May I ask what viability, T/C has been recorded for O=C(C=Cn1cnc(-c2cc(C(F)(F)F)cc(C(F)(F)F)c2)n1)NNc1cnccn1 + NC1CC1c1ccc(-c2cccc(O)c2)cc1 ?
25.1

May I ask what viability, T/C has been recorded for CC[C@@]1(O)C(=O)OCc2c1cc1n(c2=O)Cc2cc3c(CN(C)C)c(O)ccc3nc2-1 + NC1CCC(NC2CC2c2ccccc2)CC1 ?
8.84

May I ask what viability, T/C has been recorded for CC(C)CC(NC(=O)CNC(=O)c1cc(Cl)ccc1Cl)B1OC(=O)CC(CC(=O)O)(C(=O)O)O1 (centres undefined) + NC1CC1c1ccc(-c2cccc(O)c2)cc1 ?
4.36

May I ask what viability, T/C has been recorded for Cn1ncnc1C1c2n[nH]c(=O)c3cc(F)cc(c23)NC1c1ccc(F)cc1 (centres undefined) + NC1CC1c1ccc(-c2cccc(O)c2)cc1 ?
62.3

###

tested on: 324938-238-R-J1-PDC complex spheroid viability; assay: Anticancer human tumor 324938-238-R-J1-PDC cell line growth inhibition; conditions: curve of first compound; second compound 0.316 µM;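 note: spheroids also contain HUVEC and human MSCs and agents combined with iadademstat; spheroids exposed to agents for 7 days before readout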
pIC50: −log10 of the molar value.
Everything with pIC50 lower than 8 is no (0); everything else, including exactly 8, is yes (1).

API: above_or_equal(metric=pIC50, cutoff=8) for item CC1(C)CCC(CN2CCN(c3ccc(C(=O)NS(=O)(=O)c4ccc(NCC5CCOCC5)c([N+](=O)[O-])c4)c(Oc4cnc5[nH]ccc5c4)c3)CC2)=C(c2ccc(Cl)cc2)C1 + NC1CC1c1ccc(-c2cccc(O)c2)cc1
no (0)

API: above_or_equal(metric=pIC50, cutoff=8) for item CC(C)c1c(-c2ccccc2)nc2c(C#N)c[nH]n2c1=O + NC1CCC(NC2CC2c2ccccc2)CC1
no (0)

API: above_or_equal(metric=pIC50, cutoff=8) for item COc1cc(Nc2ncc3c(n2)-c2ccc(Cl)cc2C(c2c(F)cccc2OC)=NC3)ccc1C(=O)O + NC1CCC(NC2CC2c2ccccc2)CC1
no (0)

API: above_or_equal(metric=pIC50, cutoff=8) for item CC(C)CC(NC(=O)CNC(=O)c1cc(Cl)ccc1Cl)B1OC(=O)CC(CC(=O)O)(C(=O)O)O1 (stereo not drawn) + NC1CCC(NC2CC2c2ccccc2)CC1
yes (1)

API: above_or_equal(metric=pIC50, cutoff=8) for item CC1COCCN1c1cc(C2(S(C)(=N)=O)CC2)nc(-c2ccnc3[nH]ccc23)n1 (stereo not drawn) + NC1CCC(NC2CC2c2ccccc2)CC1
no (0)

API: above_or_equal(metric=pIC50, cutoff=8) for item Nc1ncn(C2CC(O)C(CO)S2)c(=O)n1 (stereo not drawn) + NC1CCC(NC2CC2c2ccccc2)CC1
no (0)

API: above_or_equal(metric=pIC50, cutoff=8) for item COc1cc(C2c3cc4c(cc3C(OC3OC5COC(C)OC5C(O)C3O)C3COC(=O)C23)OCO4)cc(OC)c1O (stereo not drawn) + NC1CC1c1ccc(-c2cccc(O)c2)cc1
no (0)

API: above_or_equal(metric=pIC50, cutoff=8) for item NS(=O)(=O)OCC1CC(n2ccc3c(NC4CCc5ccccc54)ncnc32)CC1O (stereo not drawn) + NC1CC1c1ccc(-c2cccc(O)c2)cc1
no (0)

API: above_or_equal(metric=pIC50, cutoff=8) for item CC(C)CC(NC(=O)CNC(=O)c1cc(Cl)ccc1Cl)B1OC(=O)CC(CC(=O)O)(C(=O)O)O1 (stereo not drawn) + NC1CC1c1ccc(-c2cccc(O)c2)cc1
yes (1)

API: above_or_equal(metric=pIC50, cutoff=8) for item O=C(C=Cc1cccc(S(=O)(=O)Nc2ccccc2)c1)NO + NC1CCC(NC2CC2c2ccccc2)CC1
no (0)

API: above_or_equal(metric=pIC50, cutoff=8) for item CC[C@@]1(O)C(=O)OCc2c1cc1n(c2=O)Cc2cc3c(CN(C)C)c(O)ccc3nc2-1 + NC1CC1c1ccc(-c2cccc(O)c2)cc1
yes (1)

API: above_or_equal(metric=pIC50, cutoff=8) for item CC1COCCN1c1cc(-c2ccnn2C)c2ccnc(-c3ccn[nH]3)c2n1 (stereo not drawn) + NC1CC1c1ccc(-c2cccc(O)c2)cc1
no (0)
